In this section we review reported GI50 values for a set of compounds.
# System: NCI-H522 lung
# protocol-text: NCI tumour cell line growth inhibition, 48 h

Observe how each entry below is paired with its result.
compound: CC[C@@H](C)/C=C(C)/C=C/C(=O)c1c(O)c(-c2ccc(OC(=O)[C@@]34CC[C@@](C)(C(=O)O3)C4(C)C)cc2)cn(O)c1=O
GI50: 1730 nM
//
compound: CC12OC(CC(O)C1O)n1c3ccccc3c3c4c(c5c6ccccc6n2c5c31)C(=O)N(CCN1CCOCC1)C4=O (centres undefined)
GI50: 704 nM
//
compound: O=C(Nc1ccncc1)C(=O)c1cn(S(=O)(=O)c2cccc(Cl)c2)c2ccccc12
GI50: 2410 nM

Ask: Look at this compound and give its reported GI50. `O=C1C=C(NCCO)c2nccc3c2c1nc1ccccc13`
Result: 22500 nM
